Where do these numbers come from? They come from ChEMBL document CHEMBL1201862.

tested on: NCI-H460; assay: NCI tumour cell line growth inhibition, 48 h
Active and inactive are the calls of the source. Rule as the data show it: active = GI50 up to about 1.1 µM and inactive = higher.
quantity name: GI50

List reported GI50 for each of these compounds:
1. CCCCCCC1CCC2CCCC(C)N12 (centres undefined)
2. CC(=O)O[C@H]1C(=O)[C@@]2(C)C(C(OC(=O)c3ccccc3)[C@]3(O)CC(OC(=O)C(O)C(NC(=O)c4ccc(C)cc4)c4ccccc4)C(C)=C1C3(C)C)[C@]1(OC(C)=O)CO[C@@H]1C[C@@H]2O (some centres undefined)
3. COc1ccccc1C1C2=C(COC2=O)OC(C)(C)Oc2cc3c(cc21)OCO3 (centres undefined)

Response:
23.7 µM (inactive)
< 0.0025 µM (active)
3.6 µM (inactive)

Request: Which GI50 is listed for CC1CC(C)C(C(O)CC2CC(=O)N(c3ccccc3)C(=O)C2)C(O)C1 (centres undefined) ?
Response: > 100 µM (inactive)
